Reference for the values: patent US6740642B2

# System: St. pneumoniae 1/1
# Experiment: MIC, standard microdilution
# Assay type: cell-based, Streptococcus pneumoniae
# Measurement setup: Streptococcus pneumoniae, read-out: minimum inhibitory concentration (MIC)
# From the text: The antibacterial activities of the compounds have been determined by standard microdilution technique (National Committee for Clinical Laboratory Standards. 1997. Methods for dilution antimicrobial susceptibility tests for bacteria that grow aerobically, 4th edition. Approved standard M7-A4. National Committee for Clinical Laboratory Standards, Wayne, Pa.).
Metric: MIC

| Molecule | MIC |
| --- | --- |
| CC[C@H]1OC(=O)[C@H](C)C(=O)[C@H](C)[C@@H](O[C@@H]2O[C@H](C)C[C@H](N(C)C)[C@H]2O)[C@](C)(OC)C[C@@H](C)C(=O)[C@H](C)[C@H]2[C@H](SCCOc3ccccc3)C(=O)O[C@@]21C | ≤ 0.5 µg/mL |

Please look at the items below and tell me MIC for each one, in order.
1. CC[C@H]1OC(=O)[C@H](C)C(=O)[C@H](C)[C@@H](O[C@@H]2O[C@H](C)C[C@H](N(C)C)[C@H]2O)[C@](C)(OC)C[C@@H](C)C(=O)[C@H](C)[C@H]2N(CCCCn3cnc(-c4cccnc4)c3)C(=O)O[C@]12C
2. CC[C@H]1OC(=O)[C@H](C)C(=O)[C@H](C)[C@@H](O[C@@H]2O[C@H](C)C[C@H](N(C)C)[C@H]2O)[C@](C)(OC)C[C@@H](C)C(=O)[C@H](C)[C@H]2[C@H](SCCCc3ccccn3)C(=O)O[C@@]21C

[A]
1: ≤ 0.12 µg/mL; 2: ≤ 0.12 µg/mL

Parameter requested: MIC. Apply to each item below.
1. CO[C@@H]1[C@@H](O[C@@H]2O[C@H](C)[C@@H](O[C@H]3C[C@@](C)(O)[C@@H](OC(=O)CC(C)C)[C@H](C)O3)[C@H](N(C)C)[C@H]2O)[C@@H](CC=O)C[C@@H](C)[C@@H](O)/C=C/C=C/C[C@@H](C)OC(=O)C[C@H]1OC(C)=O [Josamycin, reference compound]
2. CC[C@H]1OC(=O)[C@H](C)C(=O)[C@H](C)[C@@H](O[C@@H]2O[C@H](C)C[C@H](N(C)C)[C@H]2O)[C@](C)(OC)C[C@@H](C)C(=O)[C@H](C)[C@H]2[C@H](SCCn3cnc(-c4cccnc4)c3)C(=O)O[C@@]21C
3. CC[C@H]1OC(=O)[C@H](C)C(=O)[C@H](C)[C@@H](O[C@@H]2O[C@H](C)C[C@H](N(C)C)[C@H]2O)[C@](C)(OC)C[C@@H](C)C(=O)[C@H](C)[C@H]2[C@H](S(=O)(=O)CCCc3ccccc3)C(=O)O[C@@]21C
4. CC[C@H]1OC(=O)[C@H](C)C(=O)[C@H](C)[C@@H](O[C@@H]2O[C@H](C)C[C@H](N(C)C)[C@H]2O)[C@](C)(OC)C[C@@H](C)C(=O)[C@H](C)[C@H]2[C@H](SCCn3ccc(-c4ccncc4)n3)C(=O)O[C@@]21C
5. CC[C@H]1OC(=O)[C@H](C)C(=O)[C@H](C)[C@@H](O[C@@H]2O[C@H](C)C[C@H](N(C)C)[C@H]2O)[C@](C)(OC)C[C@@H](C)C(=O)[C@H](C)[C@H]2[C@H](SCCn3cncn3)C(=O)O[C@@]21C
6. CC[C@H]1OC(=O)[C@H](C)C(=O)[C@H](C)[C@@H](O[C@@H]2O[C@H](C)C[C@H](N(C)C)[C@H]2O)[C@](C)(OC)C[C@@H](C)C(=O)[C@H](C)[C@H]2[C@H](SCCn3cc(C)c(=O)[nH]c3=O)C(=O)O[C@@]21C

[A]
≤ 0.12 µg/mL
≤ 0.12 µg/mL
≤ 0.5 µg/mL
≤ 0.12 µg/mL
≤ 0.12 µg/mL
≤ 0.12 µg/mL

I'm hoping you can list MIC for every molecule here, please.
1. CC[C@H]1OC(=O)[C@H](C)C(=O)[C@H](C)[C@@H](O[C@@H]2O[C@H](C)C[C@H](N(C)C)[C@H]2O)[C@](C)(OC)C[C@@H](C)C(=O)[C@H](C)[C@H]2[C@H](SCCc3ccccn3)C(=O)O[C@@]21C
2. CC[C@H]1OC(=O)[C@H](C)C(=O)[C@H](C)[C@@H](O[C@@H]2O[C@H](C)C[C@H](N(C)C)[C@H]2O)[C@](C)(OC)C[C@@H](C)C(=O)[C@H](C)[C@H]2[C@H](SCCc3ccccc3)C(=O)O[C@@]21C
3. CC[C@H]1OC(=O)[C@H](C)C(=O)[C@H](C)[C@@H](O[C@@H]2O[C@H](C)C[C@H](N(C)C)[C@H]2O)[C@](C)(OC)C[C@@H](C)C(=O)[C@H](C)[C@H]2[C@H](Sc3ccccc3)C(=O)O[C@@]21C
4. CC[C@H]1OC(=O)[C@H](C)C(=O)[C@H](C)[C@@H](O[C@@H]2O[C@H](C)C[C@H](N(C)C)[C@H]2O)[C@](C)(OC)C[C@@H](C)C(=O)[C@H](C)[C@H]2[C@H](SCCCn3cnc4c(N)ncnc43)C(=O)O[C@@]21C
5. CC[C@H]1OC(=O)[C@H](C)C(=O)[C@H](C)[C@@H](O[C@@H]2O[C@H](C)C[C@H](N(C)C)[C@H]2O)[C@](C)(OC)C[C@@H](C)C(=O)[C@H](C)[C@H]2[C@H](SCCn3cnc(-c4cccnc4)n3)C(=O)O[C@@]21C
6. CC[C@H]1OC(=O)[C@H](C)C(=O)[C@H](C)[C@@H](O[C@@H]2O[C@H](C)C[C@H](N(C)C)[C@H]2O)[C@](C)(OC)C[C@@H](C)C(=O)[C@H](C)[C@H]2[C@H](SCCn3cnc4c(N)ncnc43)C(=O)O[C@@]21C

[A]
1. ≤ 0.5 µg/mL
2. ≤ 0.5 µg/mL
3. ≤ 0.5 µg/mL
4. ≤ 0.25 µg/mL
5. ≤ 0.12 µg/mL
6. ≤ 0.12 µg/mL

---

# Tested on: H. influenzae 2947
# Experiment: MIC, agar dilution, HTM medium
# Format: cell-based, Haemophilus influenzae
# Measurement setup: Haemophilus influenzae, read-out: MIC
Metric: MIC (µg/mL)
Numbers only, in µg/mL.

Use the examples below as a reference point.
| Molecule | Subject of test | MIC [µg/mL] |
| --- | --- | --- |
| CC[C@H]1OC(=O)[C@H](C)[C@@H](O[C@H]2C[C@@](C)(OC)[C@@H](O)C(C)O2)[C@H](C)[C@@H](O[C@@H]2OC(C)C[C@H](N(C)C)[C@H]2O)[C@](C)(O)C[C@@H](C)CN(C)C(C)C(O)[C@]1(C)O (stereo partly drawn) | H. influenzae 2947 | 2 |
| CC[C@H]1OC(=O)[C@H](C)C(=O)[C@H](C)[C@@H](O[C@@H]2O[C@H](C)C[C@H](N(C)C)[C@H]2O)[C@](C)(OC)C[C@@H](C)C(=O)[C@H](C)[C@H]2[C@H](SCCn3cnc4c(N)ncnc43)C(=O)O[C@@]21C | H. influenzae 2947 | 2 |
| CC[C@H]1OC(=O)[C@H](C)[C@@H](O[C@H]2C[C@@](C)(OC)[C@@H](O)[C@H](C)O2)[C@H](C)[C@@H](O[C@@H]2O[C@H](C)C[C@H](N(C)C)[C@H]2O)[C@](C)(OC)C[C@@H](C)C(=O)[C@H](C)[C@@H](O)[C@]1(C)O | H. influenzae 2947 | 16 |

Go through the items and report each one's MIC.
1. CC[C@H]1OC(=O)[C@H](C)C(=O)[C@H](C)[C@@H](O[C@@H]2O[C@H](C)C[C@H](N(C)C)[C@H]2O)[C@](C)(OC)C[C@@H](C)C(=O)[C@H](C)[C@H]2[C@H](SCCn3cc(C)c(=O)[nH]c3=O)C(=O)O[C@@]21C
2. CC[C@H]1OC(=O)[C@H](C)[C@@H](O[C@H]2C[C@@](C)(OC)[C@@H](O)[C@H](C)O2)[C@H](C)[C@@H](O[C@@H]2O[C@H](C)C[C@H](N(C)C)[C@H]2O)[C@](C)(O)C[C@@H](C)C(=O)[C@H](C)[C@@H](O)[C@]1(C)O
3. CC[C@H]1OC(=O)[C@H](C)C(=O)[C@H](C)[C@@H](O[C@@H]2O[C@H](C)C[C@H](N(C)C)[C@H]2O)[C@](C)(OC)C[C@@H](C)C(=O)[C@H](C)[C@H]2N(CCCCn3cnc(-c4cccnc4)c3)C(=O)O[C@]12C

[A]
[4, 4, 4]

---

Give MIC for every item shown.
# Test system: H. influenzae 1
# Experiment: MIC, agar dilution, HTM medium
# Type: cell-based, Haemophilus influenzae
# Measurement setup: Haemophilus influenzae, read-out: MIC
Numbers only, in µg/mL.

| Molecule | Subject of test | MIC / µg/mL |
| --- | --- | --- |
| CC[C@H]1OC(=O)[C@H](C)[C@@H](O[C@H]2C[C@@](C)(OC)[C@@H](O)C(C)O2)[C@H](C)[C@@H](O[C@@H]2OC(C)C[C@H](N(C)C)[C@H]2O)[C@](C)(O)C[C@@H](C)CN(C)C(C)C(O)[C@]1(C)O (stereo partly drawn) | H. influenzae 1 | 2 |
| CC[C@H]1OC(=O)[C@H](C)[C@@H](O[C@H]2C[C@@](C)(OC)[C@@H](O)[C@H](C)O2)[C@H](C)[C@@H](O[C@@H]2O[C@H](C)C[C@H](N(C)C)[C@H]2O)[C@](C)(O)C[C@@H](C)C(=O)[C@H](C)[C@@H](O)[C@]1(C)O | H. influenzae 1 | 4 |
| CC[C@H]1OC(=O)[C@H](C)C(=O)[C@H](C)[C@@H](O[C@@H]2O[C@H](C)C[C@H](N(C)C)[C@H]2O)[C@](C)(OC)C[C@@H](C)C(=O)[C@H](C)[C@H]2[C@H](SCCn3cc(C)c(=O)[nH]c3=O)C(=O)O[C@@]21C | H. influenzae 1 | 4 |
| CC[C@H]1OC(=O)[C@H](C)C(=O)[C@H](C)[C@@H](O[C@@H]2O[C@H](C)C[C@H](N(C)C)[C@H]2O)[C@](C)(OC)C[C@@H](C)C(=O)[C@H](C)[C@H]2[C@H](SCCn3cnc4c(N)ncnc43)C(=O)O[C@@]21C | H. influenzae 1 | 1 |
| CC[C@H]1OC(=O)[C@H](C)C(=O)[C@H](C)[C@@H](O[C@@H]2O[C@H](C)C[C@H](N(C)C)[C@H]2O)[C@](C)(OC)C[C@@H](C)C(=O)[C@H](C)[C@H]2N(CCCCn3cnc(-c4cccnc4)c3)C(=O)O[C@]12C | H. influenzae 1 | 4 |

The record that follows has no MIC shown yet.
[Q] // query MIC value for entry `CC[C@H]1OC(=O)[C@H](C)[C@@H](O[C@H]2C[C@@](C)(OC)[C@@H](O)[C@H](C)O2)[C@H](C)[C@@H](O[C@@H]2O[C@H](C)C[C@H](N(C)C)[C@H]2O)[C@](C)(OC)C[C@@H](C)C(=O)[C@H](C)[C@@H](O)[C@]1(C)O`
[A] 8
